- system: T1, cyno TfR extracellular domain (analogous construct to human TfR ecd) (cynomolgus monkey, UniProt Q5RDH6 87-760 (Pongo abelii entry))
- T1 construct: also called cynoTfR ecd
- T1 chain: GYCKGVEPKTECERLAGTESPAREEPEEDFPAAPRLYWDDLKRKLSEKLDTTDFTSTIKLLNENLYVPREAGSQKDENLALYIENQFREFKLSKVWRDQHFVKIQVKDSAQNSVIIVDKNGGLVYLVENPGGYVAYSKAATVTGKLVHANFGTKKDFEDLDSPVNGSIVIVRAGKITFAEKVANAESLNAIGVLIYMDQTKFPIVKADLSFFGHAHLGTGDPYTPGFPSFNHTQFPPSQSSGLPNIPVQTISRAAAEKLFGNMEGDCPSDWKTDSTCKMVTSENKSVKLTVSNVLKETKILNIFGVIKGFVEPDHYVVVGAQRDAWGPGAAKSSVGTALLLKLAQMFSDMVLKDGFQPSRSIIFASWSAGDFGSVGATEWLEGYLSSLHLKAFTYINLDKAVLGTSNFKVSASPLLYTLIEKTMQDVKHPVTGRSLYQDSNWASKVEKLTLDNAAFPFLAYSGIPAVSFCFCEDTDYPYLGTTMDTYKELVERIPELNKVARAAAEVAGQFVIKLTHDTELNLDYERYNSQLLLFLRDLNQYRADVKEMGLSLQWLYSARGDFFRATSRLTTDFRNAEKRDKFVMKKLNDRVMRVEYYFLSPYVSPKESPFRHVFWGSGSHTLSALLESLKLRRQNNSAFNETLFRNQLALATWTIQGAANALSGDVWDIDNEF
- assayComment: ELISA, TfR-coated plate, IgG in culture supernatant;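 note: human or cynomolgus TfR coated at 2 µg/mL, supernatant IgG titrated in 1:5 steps for 1 h, bound antibody read with HRP anti-human Fcγ and TMB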
Entries annotated with measured EC50
Respond with the bare value in ng/mL.

Below: 2 binders and their reported EC50.
{"columns": ["binder", "EC50 [ng/mL]"],
 "data": [
  ["hu15G11.v5 IgG Ala variant R56A (HVR-H2) (antibody, name in Kabat numbering, V domains shown, IgG in cell culture supernatant; Kabat numbers after 52a lie one below the linear count) VH: EVQLVQSGAEVKKPGASVKVSCKASGYTFTSYWMHWVRQAPGQRLEWIGEINPTNGATNYIEKFKSRATLTVDKSASTAYMELSSLRSEDTAVYYCARGTRAYHYWGQGTMVTVSS VL: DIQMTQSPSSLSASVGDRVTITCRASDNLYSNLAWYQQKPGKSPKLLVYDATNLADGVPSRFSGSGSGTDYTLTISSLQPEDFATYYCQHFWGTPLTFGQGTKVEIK", 5410],
  ["hu15G11.v5 IgG Ala variant I51A (HVR-H2) (antibody, name in Kabat numbering, V domains shown, IgG in cell culture supernatant) VH: EVQLVQSGAEVKKPGASVKVSCKASGYTFTSYWMHWVRQAPGQRLEWIGEANPTNGRTNYIEKFKSRATLTVDKSASTAYMELSSLRSEDTAVYYCARGTRAYHYWGQGTMVTVSS VL: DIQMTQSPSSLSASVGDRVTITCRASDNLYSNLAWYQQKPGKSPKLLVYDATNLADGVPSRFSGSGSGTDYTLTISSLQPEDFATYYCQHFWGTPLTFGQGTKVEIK", 0.6]
]}

For this binder ( hu15G11.v5 IgG Ala variant D56A (HVR-L2) (antibody, V domains shown, IgG in cell culture supernatant) VH: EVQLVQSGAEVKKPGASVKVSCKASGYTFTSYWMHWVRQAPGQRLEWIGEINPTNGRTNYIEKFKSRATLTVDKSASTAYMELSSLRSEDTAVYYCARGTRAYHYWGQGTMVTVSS VL: DIQMTQSPSSLSASVGDRVTITCRASDNLYSNLAWYQQKPGKSPKLLVYDATNLAAGVPSRFSGSGSGTDYTLTISSLQPEDFATYYCQHFWGTPLTFGQGTKVEIK ), measured EC50 is 0.5

For this binder ( hu15G11.v5 IgG Ala variant P52aA (HVR-H2) (antibody, name in Kabat numbering, V domains shown, IgG in cell culture supernatant) VH: EVQLVQSGAEVKKPGASVKVSCKASGYTFTSYWMHWVRQAPGQRLEWIGEINATNGRTNYIEKFKSRATLTVDKSASTAYMELSSLRSEDTAVYYCARGTRAYHYWGQGTMVTVSS VL: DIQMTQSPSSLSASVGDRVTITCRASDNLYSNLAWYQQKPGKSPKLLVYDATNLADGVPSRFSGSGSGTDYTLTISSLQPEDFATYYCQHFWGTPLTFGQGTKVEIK ), measured EC50 is 8.1

For this binder ( hu15G11.v5 IgG Ala variant S26A (HVR-L1) (antibody, V domains shown, IgG in cell culture supernatant) VH: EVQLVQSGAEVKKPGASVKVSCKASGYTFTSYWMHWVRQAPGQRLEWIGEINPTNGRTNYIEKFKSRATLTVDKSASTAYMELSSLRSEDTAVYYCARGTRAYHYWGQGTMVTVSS VL: DIQMTQSPSSLSASVGDRVTITCRAADNLYSNLAWYQQKPGKSPKLLVYDATNLADGVPSRFSGSGSGTDYTLTISSLQPEDFATYYCQHFWGTPLTFGQGTKVEIK ), measured EC50 is 0.6
